Molecular target: Diacylglycerol O-acyltransferase 2 (Homo sapiens)
Sequence (Q96PD7 whole entry): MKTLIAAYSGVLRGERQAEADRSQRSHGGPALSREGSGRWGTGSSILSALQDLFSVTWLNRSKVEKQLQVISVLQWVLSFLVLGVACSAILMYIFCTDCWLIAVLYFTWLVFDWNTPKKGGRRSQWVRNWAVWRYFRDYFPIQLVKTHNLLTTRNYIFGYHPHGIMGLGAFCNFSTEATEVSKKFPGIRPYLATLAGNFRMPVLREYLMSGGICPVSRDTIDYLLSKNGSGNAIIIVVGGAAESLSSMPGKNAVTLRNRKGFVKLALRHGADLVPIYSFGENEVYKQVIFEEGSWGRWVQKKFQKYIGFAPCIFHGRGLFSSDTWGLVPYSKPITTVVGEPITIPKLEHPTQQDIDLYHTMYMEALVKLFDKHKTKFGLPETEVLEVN
Listed here: items and their measured IC50.
MEASURED PROPERTY: IC50 (nM)

COMPOUND	NUMERIC READOUT
CCOc1ccccc1Oc1cccc(-c2cncc(NC(=O)/C=C/c3ccc(C(C)(C)C(=O)O)cc3)n2)c1 [US20230322706, Example 17]	240
CCOc1ccccc1Oc1cccc(-c2cncc(NC(=O)Cc3ccc(C(F)(F)C(=O)O)cc3)n2)c1 [US20230322706, Example 14]	3100
CCOC(=O)C(F)(F)c1ccc(CC(=O)Nc2cncc(-c3cncc(Oc4ccccc4OCC)c3)n2)cc1 [US20230322706, Example 6]	120
